Values compiled from ChEMBL document CHEMBL1151775.

# System: Oocyte
# RUN_DESCRIPTION: Inhibition of human aquaporin 4 M23 isoform expressed in Xenopus laevis oocytes at 20 uM
# Type: cell-based
READOUT_TYPE: inhibition (%)
# number only, unit % dropped from output

| MOLECULE | RESULT_UNIT | inhibition |
| --- | --- | --- |
| Nc1nnc(-c2cccc(Cl)c2Cl)c(N)n1 [LAMOTRIGINE] | % | 54 |

Next up:
Param item: NC(=O)N1c2ccccc2CC(=O)c2ccccc21 ; param system: Oocyte; output inhibition: 33

---

Reported inhibition values are given for each entry in this list.
# Test system: Oocyte
# RUN_DESCRIPTION: Inhibition of human aquaporin 4 M23 isoform expressed in Xenopus laevis oocytes at 20 uM
# Format: cell-based
# number only, unit % dropped from output

Some solved cases for reference:
| COMPOUND | inhibition (%) |
| --- | --- |
| NC(=O)N1c2ccccc2C2OC2c2ccccc21 (stereo unspecified) | 40 |
| CC1(C)O[C@@H]2[C@@H](CO[C@@]3(COS(N)(=O)=O)OC(C)(C)O[C@@H]23)O1 [TOPIRAMATE] | 67 |
| CCCC(CCC)C(=O)O | 40 |
| CC(=O)Nc1nnc(S(N)(=O)=O)s1 [ACETAZOLAMIDE] | 78 |
| NS(=O)(=O)Cc1noc2ccccc12 [ZONISAMIDE] | 48 |

Form: compound = O=C1NC(=O)C(c2ccccc2)(c2ccccc2)N1 ; inhibition = 58
